- System: Proteus mirabilis
- ASSAY_PROCEDURE: Antimicrobial activity against Proteus mirabilis 06-489 isolated from infected human urinary tract by CLSI agar dilution method
- Type: functional
- SETTINGS: 06-489, Urine
OBSERVED_PROPERTY: MIC

QUERY_SMILES: CO/N=C(\C(=O)N[C@@H]1C(=O)N2C(C(=O)O)=C(COC(C)=O)CS[C@H]12)c1csc(N)n1
RESULT: ≤ 0.06 µg/mL

QUERY_SMILES: NCC[C@H](O)C(=O)N[C@@H]1C[C@H](N)[C@@H](O[C@H]2O[C@H](CN)[C@@H](O)[C@H](O)[C@H]2O)[C@H](O)[C@H]1O[C@H]1O[C@H](CO)[C@@H](O)[C@H](N)[C@H]1O
RESULT: 8 µg/mL

Measured MIC, COc1cc(Cc2cnc(N)nc2N)cc(OC)c1OC : > 128 µg/mL

* * *

- Tested on: Proteus mirabilis
- ASSAY_PROCEDURE: Antimicrobial activity against Proteus mirabilis 06-489 isolated from infected human urinary tract by CLSI agar dilution method
- Assay type: functional
- SETTINGS: 06-489, Urine
Response field label takes yes when MIC is strictly below 20 µg/mL and no in all other cases.

// known answers, use as guide
QUERY_SMILES: CC(C)(O/N=C(\C(=O)N[C@@H]1C(=O)N2C(C(=O)[O-])=C(C[n+]3ccccc3)CS[C@H]12)c1csc(N)n1)C(=O)O
EXPERIMENTAL_TARGET: Proteus mirabilis
QUALITATIVE_LABEL: yes

QUERY_SMILES: O=C(N[C@H](CO)[C@H](O)c1ccc([N+](=O)[O-])cc1)C(Cl)Cl
EXPERIMENTAL_TARGET: Proteus mirabilis
QUALITATIVE_LABEL: yes

QUERY_SMILES: CN(C)[C@@H]1C(O)=C(C(N)=O)C(=O)[C@@]2(O)C(O)=C3C(=O)c4c(O)cccc4[C@@](C)(O)[C@H]3C[C@@H]12
EXPERIMENTAL_TARGET: Proteus mirabilis
QUALITATIVE_LABEL: no

QUERY_SMILES: CC1(C)S[C@@H]2[C@H](NC(=O)[C@H](N)c3ccccc3)C(=O)N2[C@H]1C(=O)O
EXPERIMENTAL_TARGET: Proteus mirabilis
QUALITATIVE_LABEL: no

QUERY_SMILES: CO/N=C(\C(=O)N[C@@H]1C(=O)N2C(C(=O)O)=C(COC(N)=O)CS[C@H]12)c1ccco1
EXPERIMENTAL_TARGET: Proteus mirabilis
QUALITATIVE_LABEL: yes

q: Does this compound meet the criterion MIC < 20 µg/mL? Cc1cc(NS(=O)(=O)c2ccc(N)cc2)no1
a: no

q: Does this compound meet the criterion MIC < 20 µg/mL? CO[C@@]1(NC(=O)Cc2cccs2)C(=O)N2C(C(=O)O)=C(COC(N)=O)CS[C@@H]21
a: yes
